Target: UniProt P41145
Sequence (P41145 whole entry): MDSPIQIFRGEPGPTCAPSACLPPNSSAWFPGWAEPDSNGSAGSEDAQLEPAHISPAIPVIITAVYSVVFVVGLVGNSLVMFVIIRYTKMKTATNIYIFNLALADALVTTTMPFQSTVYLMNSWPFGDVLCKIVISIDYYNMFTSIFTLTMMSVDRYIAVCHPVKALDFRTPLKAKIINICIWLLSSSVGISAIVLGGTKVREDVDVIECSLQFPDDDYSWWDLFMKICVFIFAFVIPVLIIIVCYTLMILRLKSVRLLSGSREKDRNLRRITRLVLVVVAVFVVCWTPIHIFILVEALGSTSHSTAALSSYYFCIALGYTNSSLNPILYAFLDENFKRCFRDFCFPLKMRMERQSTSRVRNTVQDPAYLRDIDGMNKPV
ENDPOINT LABEL: Ki (nM)
One number for each entry, in nM.

# input Look up and state reported Ki for `C[C@H]1CN(C)CC[C@@]1(C)c1cccc(O)c1`
# output 833

---

Biological target: Mu-type opioid receptor (Cavia porcellus, UniProt P97266)
Sequence (P97266 whole entry): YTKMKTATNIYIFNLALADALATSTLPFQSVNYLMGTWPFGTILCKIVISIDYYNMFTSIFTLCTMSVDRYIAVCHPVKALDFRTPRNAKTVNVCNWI
Experiment: Inhibition of [35S]GTP-gamma-S, binding in guinea pig caudate stimulated by DAMGO (Opioid receptor mu 1)
Format: functional
ENDPOINT LABEL: Ki (nM)
Numbers only, in nM.

| COMPOUND | TARGET | Ki / nM |
| --- | --- | --- |
| C[C@H]1C2CCCC1(c1cccc(O)c1)CCN2C (some centres not stated) | Mu-type opioid receptor (Cavia porcellus, UniProt P97266) | 21.3 |

Alright, here's another compound for you.
# input Look up and state reported Ki for C[C@H]1C2CCCC1(c1cccc(O)c1)CCN2CCc1ccccc1 (some centres not stated)
# output 0.338
